Biological target: Human Recombinant Matriptase 2 (Homo sapiens)
Construct: made in house
Assay: Matriptase 2 inhibition, fluorescence based assay (Method I)
Type: biochemical
Settings: Table A; Ki of Matriptase-2; read-out: Mat-2 Ki
Reported Ki values are given for each entry in this list.

As a guide, the following entries are already answered.
Molecule | Assay Metric | Measured Value
C[C@H](OC(=O)c1ccccc1)OC(=O)c1cc2ccc(CN)nc2n1Cc1cc(NS(=O)(=O)Cc2ccccc2)cc2ccccc12 (racemic) | Ki | 500 to 3000 nM
NCc1ccc2cc(C(=O)OCCN3CCOCC3)n(Cc3cc(NS(=O)(=O)Cc4cccs4)cc4ccccc34)c2n1 | Ki | ≤ 100 nM
CN(C)CCOC(=O)c1cc2ccc(CN)nc2n1Cc1cc(NS(=O)(=O)Cc2ccsc2)cc2ccccc12 | Ki | ≤ 100 nM
Cn1cncc1COC(=O)c1cc2ccc(CN)nc2n1Cc1cc(NS(=O)(=O)Cc2ccccc2)cc2ccccc12 | Ki | ≤ 100 nM
NCc1ccc2cc(C(=O)OC[C@H]3CCCN3)n(Cc3cc(NS(=O)(=O)Cc4ccccc4)cc4ccccc34)c2n1 (racemic) | Ki | 100 to 500 nM

Alright, here's another molecule for you.
# get_value(readout='Ki', item= `NCc1ccc2cc(C(=O)OCCF)n(Cc3cc(NS(=O)(=O)Cc4ccccc4)cc4ccccc34)c2n1` ) 100 to 500 nM

---

Recorded measurements of pKi, one per entry
Target: Human Recombinant Matriptase 2 (Homo sapiens, UniProt Q8IU80)
Construct: made in house
Sequence (Q8IU80 1-811): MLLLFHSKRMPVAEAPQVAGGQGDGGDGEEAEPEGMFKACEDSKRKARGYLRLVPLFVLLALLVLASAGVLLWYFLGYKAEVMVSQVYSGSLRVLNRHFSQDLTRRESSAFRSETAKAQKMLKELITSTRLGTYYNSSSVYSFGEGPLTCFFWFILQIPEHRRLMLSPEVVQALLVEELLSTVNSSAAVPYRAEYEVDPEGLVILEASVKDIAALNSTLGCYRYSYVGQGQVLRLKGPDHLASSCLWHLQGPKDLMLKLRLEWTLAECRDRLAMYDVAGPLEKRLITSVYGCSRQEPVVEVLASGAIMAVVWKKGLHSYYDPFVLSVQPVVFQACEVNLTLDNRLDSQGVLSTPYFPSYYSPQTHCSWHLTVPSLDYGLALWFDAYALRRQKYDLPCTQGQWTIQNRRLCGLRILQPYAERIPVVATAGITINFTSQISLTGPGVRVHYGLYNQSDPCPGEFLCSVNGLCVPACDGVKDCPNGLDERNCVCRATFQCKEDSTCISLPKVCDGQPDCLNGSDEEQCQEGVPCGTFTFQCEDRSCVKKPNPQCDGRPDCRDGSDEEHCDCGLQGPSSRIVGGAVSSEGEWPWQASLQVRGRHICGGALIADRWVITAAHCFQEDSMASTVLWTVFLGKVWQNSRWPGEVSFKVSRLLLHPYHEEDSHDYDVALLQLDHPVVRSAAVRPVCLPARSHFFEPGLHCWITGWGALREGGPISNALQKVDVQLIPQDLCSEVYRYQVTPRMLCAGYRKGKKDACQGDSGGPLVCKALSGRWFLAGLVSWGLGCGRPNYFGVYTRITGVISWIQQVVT
Test: Matriptase 2 inhibition, fluorescence based assay (Method I)
Assay type: biochemical
Conditions: Table A; Ki of Matriptase-2; read-out: Mat-2 Ki
pKi: −log10 of the molar value.

Compound | Study System | Assay Metric | Measured Value
CN(C)CCOC(=O)c1cc2ccc(CN)nc2n1Cc1cc(NS(=O)(=O)Cc2ccccc2)cc2ccccc12 [Compound 49] | Human Recombinant Matriptase 2 (Homo sapiens, UniProt Q8IU80) | pKi | ≥ 7.00
CN1CCC(CNC(=O)c2cc3ccc(CN)nc3n2Cc2cc(NS(=O)(=O)Cc3ccccc3)cc3ccccc23)CC1 [Compound 12] | Human Recombinant Matriptase 2 (Homo sapiens, UniProt Q8IU80) | pKi | ≥ 7.00
Cn1nccc1COC(=O)c1cc2ccc(CN)nc2n1Cc1cc(NS(=O)(=O)Cc2ccccc2)cc2ccccc12 [Compound 68] | Human Recombinant Matriptase 2 (Homo sapiens, UniProt Q8IU80) | pKi | ≥ 7.00
NCc1ccc2cc(C(=O)O)n(Cc3cc(NS(=O)(=O)C4(c5ccccc5)CC4)cc4ccccc34)c2n1 [Compound 113] | Human Recombinant Matriptase 2 (Homo sapiens, UniProt Q8IU80) | pKi | 5.52 to 6.30
NCc1ccc2cc(C(=O)OCCn3ccnc3)n(Cc3cc(NS(=O)(=O)Cc4ccccc4)cc4ccccc34)c2n1 [Compound 93] | Human Recombinant Matriptase 2 (Homo sapiens, UniProt Q8IU80) | pKi | 6.30 to 7.00
CC(=O)O[C@H](C)OC(=O)c1cc2ccc(CN)nc2n1Cc1cc(NS(=O)(=O)Cc2ccccc2)cc2ccccc12 (racemic) [Compound 89] | Human Recombinant Matriptase 2 (Homo sapiens, UniProt Q8IU80) | pKi | 6.30 to 7.00

API: the following record is the query input.
Give the measured pKi of NCc1ccc2cc(C(=O)O)n(Cc3cc(NS(=O)(=O)Cc4cccs4)cc4ccccc34)c2n1 [Compound 153] . ≥ 7.00
